# tested system: recombinant reverse transcriptase (RT) (Human immunodeficiency virus type 1 group M subtype B)
# Construct: purchased Worthington Biochemical Corporation
# measurement notes: Reverse transcriptase inhibition assay
# Assay type: biochemical, HIV-1
# setup conditions: at 5.0 μM
List of inhibition at 5 µM values.
Report only the number, with the unit % understood.

Solved cases (3 shown):
Q: So what's the measured inhibition at 5 µM for this one? COc1cc(N=Nc2c(S(=O)(=O)O)cc3cc(S(=O)(=O)O)cc(NC(=O)c4cc(Cl)ccc4Cl)c3c2O)c(OC)cc1N=Nc1c(S(=O)(=O)O)cc2cc(S(=O)(=O)O)cc(NC(=O)c3cc(Cl)ccc3Cl)c2c1O
A: 75

Q: So what's the measured inhibition at 5 µM for this one? COc1cc(N=Nc2c(S(=O)(=O)O)cc3cc(S(=O)(=O)O)cc(NC(=O)c4ccc(Cl)cc4Cl)c3c2O)c(OC)cc1N=Nc1c(S(=O)(=O)O)cc2cc(S(=O)(=O)O)cc(NC(=O)Cc3ccc(Cl)cc3)c2c1O
A: 66

Q: So what's the measured inhibition at 5 µM for this one? COc1cc(N=Nc2c(S(=O)(=O)O)cc3cc(S(=O)(=O)O)cc(NC(=O)c4cccc(Cl)c4Cl)c3c2O)c(OC)cc1N=Nc1c(S(=O)(=O)O)cc2cc(S(=O)(=O)O)cc(NC(=O)c3ccc(Cl)cc3Cl)c2c1O
A: 80

Continuing:
Q: So what's the measured inhibition at 5 µM for this one? COc1cc(N=Nc2c(S(=O)(=O)O)cc3cc(S(=O)(=O)O)cc(NC(=O)Nc4cccc5ccccc45)c3c2O)c(OC)cc1N=Nc1c(S(=O)(=O)O)cc2cc(S(=O)(=O)O)cc(NC(C)=O)c2c1O
A: 98

* * *

List of inhibition at 1.25 µg/mL values.
# Test system: HIV-1 RF
# measurement notes: Antiviral assay, Experimental Protocol I (compound added after infection)
# Type: cell-based
# setup conditions: Human immunodeficiency virus 1, 240 h, 10% FCS, 1.25 μg/ml, p24 ELISA, read-out: % Inhibition (after day 10)
Report only the number, with the unit % understood.

Solved cases (5 shown):
Q: So what's the measured inhibition at 1.25 µg/mL for this one? COc1cc(-c2ccc(/N=N/c3ccc4c(S(=O)(=O)O)cc(S(=O)(=O)O)c(N)c4c3O)c(OC)c2)ccc1/N=N/c1ccc2c(S(=O)(=O)O)cc(S(=O)(=O)O)c(N)c2c1O [CSB, Chicago Sky Blue, reference compound]
A: 70

Q: So what's the measured inhibition at 1.25 µg/mL for this one? Cc1ccc(C(=O)Nc2ccc(S(=O)(=O)O)c3cc(S(=O)(=O)O)cc(S(=O)(=O)O)c23)cc1NC(=O)c1cccc(NC(=O)Nc2cccc(C(=O)Nc3cc(C(=O)Nc4ccc(S(=O)(=O)O)c5cc(S(=O)(=O)O)cc(S(=O)(=O)O)c45)ccc3C)c2)c1 [Suramin, reference compound]
A: 0

Q: So what's the measured inhibition at 1.25 µg/mL for this one? COc1cc(N=Nc2c(S(=O)(=O)O)cc3cc(S(=O)(=O)O)cc(NC(=O)c4ccccc4)c3c2O)c(OC)cc1N=Nc1c(S(=O)(=O)O)cc2cc(S(=O)(=O)O)cc(NC(C)=O)c2c1O
A: 87

Q: So what's the measured inhibition at 1.25 µg/mL for this one? O=C(Nc1cc(S(=O)(=O)O)cc2cc(S(=O)(=O)O)c(N=Nc3ccc(N=Nc4c(O)ccc5ccc(S(=O)(=O)O)cc45)cc3Cl)c(O)c12)c1ccccc1
A: 92

Q: So what's the measured inhibition at 1.25 µg/mL for this one? COc1cc(N=Nc2c(S(=O)(=O)O)cc3cc(S(=O)(=O)O)cc(NC(=O)c4ccc(Cl)cc4Cl)c3c2O)c(OC)cc1N=Nc1c(S(=O)(=O)O)cc2cc(S(=O)(=O)O)cc(NC(=O)c3ccc(Cl)cc3Cl)c2c1O
A: 100

Now let's try a different one.
Q: So what's the measured inhibition at 1.25 µg/mL for this one? COc1cc(N=Nc2c(S(=O)(=O)O)cc3cc(S(=O)(=O)O)cc(NC(=O)c4cccc(Cl)c4Cl)c3c2O)c(OC)cc1N=Nc1c(S(=O)(=O)O)cc2cc(S(=O)(=O)O)cc(NC(=O)c3cc(Cl)ccc3Cl)c2c1O
A: 99

* * *

List of LD50 at 168 h values.
# measurement notes: LD50, intravenous, mice
# Type: in vivo
# setup conditions: mouse, in vivo, female mice, mortalities within 1 week
Report only the number, with the unit mg/kg understood.

Q: So what's the measured LD50 at 168 h for this one? COc1cc(N=Nc2c(S(=O)(=O)O)cc3cc(S(=O)(=O)O)cc(NC(=O)c4ccccc4OC)c3c2O)c(OC)cc1N=Nc1c(S(=O)(=O)O)cc2cc(S(=O)(=O)O)cc(NC(=O)c3ccccc3)c2c1O
A: 160

Now let's try a different one.
Q: So what's the measured LD50 at 168 h for this one? Cc1ccc(C(=O)Nc2ccc(S(=O)(=O)O)c3cc(S(=O)(=O)O)cc(S(=O)(=O)O)c23)cc1NC(=O)c1cccc(NC(=O)Nc2cccc(C(=O)Nc3cc(C(=O)Nc4ccc(S(=O)(=O)O)c5cc(S(=O)(=O)O)cc(S(=O)(=O)O)c45)ccc3C)c2)c1 [Suramin, reference compound]
A: 40

* * *

# System: TA98, TA1535, TA1537, TA1538, TA100 and W2P2uvr
# measurement notes: Ames Test (in the presence of S9)
# Type: cell-based, Salmonella typhimurium
observable: Ames Test result

Solved cases (5 shown):
Q: Test system TA98, TA1535, TA1537, TA1538, TA100 and W2P2uvr; read-out Ames Test result; what value for COc1cc(-c2ccc(/N=N/c3ccc4c(S(=O)(=O)O)cc(S(=O)(=O)O)c(N)c4c3O)c(OC)c2)ccc1/N=N/c1ccc2c(S(=O)(=O)O)cc(S(=O)(=O)O)c(N)c2c1O [CSB, Chicago Sky Blue, reference compound] ?
A: Positive

Q: Test system TA98, TA1535, TA1537, TA1538, TA100 and W2P2uvr; read-out Ames Test result; what value for COc1cc(N=Nc2c(S(=O)(=O)O)cc3cc(S(=O)(=O)O)cc(NC(=O)c4ccc(Cl)cc4Cl)c3c2O)c(OC)cc1N=Nc1c(S(=O)(=O)O)cc2cc(S(=O)(=O)O)cc(NC(=O)Cc3ccc(Cl)cc3)c2c1O ?
A: Negative

Q: Test system TA98, TA1535, TA1537, TA1538, TA100 and W2P2uvr; read-out Ames Test result; what value for COc1cc(N=Nc2c(S(=O)(=O)O)cc3cc(S(=O)(=O)O)cc(NC(=O)c4cccc(Cl)c4Cl)c3c2O)c(OC)cc1N=Nc1c(S(=O)(=O)O)cc2cc(S(=O)(=O)O)cc(NC(=O)c3cccc(Cl)c3Cl)c2c1O ?
A: Negative

Q: Test system TA98, TA1535, TA1537, TA1538, TA100 and W2P2uvr; read-out Ames Test result; what value for COc1cc(N=Nc2c(S(=O)(=O)O)cc3cc(S(=O)(=O)O)cc(NC(=O)c4cc(Cl)ccc4Cl)c3c2O)c(OC)cc1N=Nc1c(S(=O)(=O)O)cc2cc(S(=O)(=O)O)cc(NC(=O)c3cc(Cl)ccc3Cl)c2c1O ?
A: Positive

Q: Test system TA98, TA1535, TA1537, TA1538, TA100 and W2P2uvr; read-out Ames Test result; what value for COc1cc(N=Nc2c(S(=O)(=O)O)cc3cc(S(=O)(=O)O)cc(NC(=O)c4ccc(C#N)cc4)c3c2O)c(OC)cc1N=Nc1c(S(=O)(=O)O)cc2cc(S(=O)(=O)O)cc(NC(=O)c3ccccc3)c2c1O ?
A: Negative

Continuing:
Q: Test system TA98, TA1535, TA1537, TA1538, TA100 and W2P2uvr; read-out Ames Test result; what value for COc1cc(N=Nc2c(S(=O)(=O)O)cc3cc(S(=O)(=O)O)cc(NC(=O)c4cccc([N+](=O)[O-])c4)c3c2O)c(OC)cc1N=Nc1c(S(=O)(=O)O)cc2cc(S(=O)(=O)O)cc(NC(=O)c3ccccc3)c2c1O ?
A: Positive

Q: Test system TA98, TA1535, TA1537, TA1538, TA100 and W2P2uvr; read-out Ames Test result; what value for CCC(C)(C)c1ccc(OCC(=O)Nc2cc(S(=O)(=O)O)cc3cc(S(=O)(=O)O)c(N=Nc4cc(OC)c(N=Nc5c(S(=O)(=O)O)cc6cc(S(=O)(=O)O)cc(NC(C)=O)c6c5O)cc4OC)c(O)c23)c(C(C)(C)CC)c1 ?
A: Negative

Q: Test system TA98, TA1535, TA1537, TA1538, TA100 and W2P2uvr; read-out Ames Test result; what value for COc1cc(N=Nc2c(S(=O)(=O)O)cc3cc(S(=O)(=O)O)cc(NC(=O)c4ccc(C)cc4)c3c2O)c(OC)cc1N=Nc1c(S(=O)(=O)O)cc2cc(S(=O)(=O)O)cc(NC(=O)c3ccccc3)c2c1O ?
A: Negative

Q: Test system TA98, TA1535, TA1537, TA1538, TA100 and W2P2uvr; read-out Ames Test result; what value for COc1cc(N=Nc2c(S(=O)(=O)O)cc3cc(S(=O)(=O)O)cc(NC(=O)c4ccccc4OC)c3c2O)c(OC)cc1N=Nc1c(S(=O)(=O)O)cc2cc(S(=O)(=O)O)cc(NC(=O)c3ccccc3)c2c1O ?
A: Negative
